Hey, just so you know, these numbers are from patent US12195427B2.

// values below are reported a(O1, O2, N2)
Molecular target: MASP-2 CCP2-SP (Homo sapiens (Human))
Assay: MASP-2 co-crystallization, X-ray crystallography and structure analysis (H-bonds, van der Waals contacts)
Conditions: Table A6-2 pharmacophore angle
// no unit, no text: just the number

Solved cases below.
CC(NC(=O)C(CCc1ccccc1)NCCCc1ccc(O)cc1)C(=O)NCc1ccc(C(=N)N)cc1.Cl.Cl (stereo not shown)	136.24
Cc1nc(N)ccc1CNC(=O)[C@H](C)NC(=O)[C@H]1C[C@@H](c2cccc3ccccc23)CCN1.Cl.Cl [1297_4]	143.80

Q: Query (compound): C[C@H](NC(=O)[C@H]1C[C@@H](c2ccccc2)CCN1)C(=O)NCc1cc(Cl)ccc1O.Cl [1078_1] ; field requested: a(O1, O2, N2)
Ans: 145.93

Q: Entry to check: C[C@H](NC(=O)[C@H]1C[C@@H](c2ccccc2)CCN1)C(=O)NCc1cc(Cl)ccc1O.Cl [1078_8]
Ans: 145.13

====

Target: MASP-2 CCP2-SP (Homo sapiens (Human), UniProt O00187)
Sequence (O00187 445-686): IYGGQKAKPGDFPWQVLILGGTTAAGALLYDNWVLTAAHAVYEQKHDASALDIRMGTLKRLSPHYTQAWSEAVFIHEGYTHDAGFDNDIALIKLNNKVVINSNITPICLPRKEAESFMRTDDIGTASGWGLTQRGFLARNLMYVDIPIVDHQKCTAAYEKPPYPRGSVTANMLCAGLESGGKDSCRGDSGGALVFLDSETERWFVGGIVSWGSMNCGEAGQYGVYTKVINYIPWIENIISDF
Sequence (O00187 364-432 partner): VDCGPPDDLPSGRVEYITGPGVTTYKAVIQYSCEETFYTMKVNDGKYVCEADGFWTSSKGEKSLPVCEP
Test: MASP-2 co-crystallization, X-ray crystallography and structure analysis (H-bonds, van der Waals contacts)
Settings: Table A6-2 pharmacophore angle
Where a name gives a salt, the structure may show the parent alone.
a(O2, N2, CA2) values by entry
Answer field: number only, no words.

Worked cases, a(O2, N2, CA2) given:
C[C@H](NC(=O)[C@H](N)C1Cc2ccccc2C1)C(=O)NCc1ccc2nc(N)[nH]c2c1	153.47
C[C@H](NC(=O)[C@H](N)CCc1ccccc1)C(=O)NCc1ccc(N)nc1.Cl.Cl [1007_2]	153.46
C[C@H](NC(=O)[C@H]1C[C@@H](c2ccccc2)CCN1)C(=O)NCc1cc(Cl)ccc1O.Cl [1078_5]	151.79
C[C@H](NC(=O)[C@H]1C[C@H](Cc2ccccc2)CN1)C(=O)NCc1ccc(C(=N)N)cc1.Cl.Cl [1306_2]	158.08
C[C@H](NC(=O)[C@H](N)CCCc1ccccc1)C(=O)NCc1ccc(C(=N)N)cc1.Cl.Cl [1042_2]	158.67

Q: Looking for the measured a(O2, N2, CA2) of CC(NC(=O)C1CC(Cc2ccccc2)CN1)C(=O)NCc1cnc2c(c1)c(Cl)cn2C.Cl.Cl (mixture of isomers) [1450_A] , can you help?
Ans: 154.51

Q: Then this compound: Cc1nc(N)ccc1CNC(=O)[C@H](C)NC(=O)[C@H]1C[C@H](Cc2cccc(-c3ccccc3)c2)CN1
Ans: 156.30

Q: Similarly, Cc1nc(N)ccc1CNC(=O)C(C)NC(=O)[C@H]1C[C@H](c2cccc(-c3ccccc3)c2)CN1 (stereo in doubt) ?
Ans: 162.09

Q: Entry C[C@H](NC(=O)[C@H]1C[C@@H](c2ccccc2)CCN1)C(=O)NCc1cc(Cl)ccc1O.Cl [1078_10] please
Ans: 156.19

Q: Queued: C[C@H](NC(=O)[C@H]1C[C@@H](c2ccccc2)CCN1)C(=O)NCc1ccc(C(=N)N)cc1 (stereo in doubt)
Ans: 154.55

Q: Do the same for Cc1nc(N)ccc1CNC(=O)[C@H](C)NC(=O)[C@H]1C[C@H](Cc2cccc(Cl)c2)CN1.Cl.Cl [1328_2] please
Ans: 154.85

Q: Field entry: Cc1nc(N)ccc1CNC(=O)[C@H](C)NC(=O)[C@H]1C[C@@H](c2ccccc2)CCN1C
Ans: 156.32

Q: Param item: Cc1nc(N)ccc1CNC(=O)[C@H](C)NC(=O)[C@H]1C[C@@H](c2ccccc2)CCN1CCC(=O)O [compound 1411, Trifluoroacetate salt]
Ans: 155.94

Q: Continue with CC(NC(=O)C(CCc1ccccc1)NCc1ccc(C(=O)N2CCOCC2)cc1)C(=O)NCc1ccc(C(=N)N)cc1.Cl.Cl (centres unmarked)
Ans: 152.46
